System: PDGFR
method-summary: Rat A10 cell proliferation assay
Assay type: cell-based
condition-context: Table 1; Rat A10 cells, recombinant rat PDGF-BB, CellTiter-Glo after 68 hours
Field: pIC50. Provide a value for each of the molecules that follow.
By convention, pIC50 is the negative base-10 log of a molar concentration.

Item: O=C(N[C@H]1c2ccccc2C[C@H]1O)c1ccc(F)c(NC(=O)c2cnc3ccccn23)c1 [F6] | pIC50: 7.07

Item: Cc1ccc2ncc(C(=O)Nc3cc(C(=O)N[C@@H]4c5ccccc5C[C@@H]4O)ccc3F)n2c1 [F17] | pIC50: 7.22

Item: Cc1ccc(C(=O)N[C@H]2c3ccccc3C[C@@H]2O)cc1NC(=O)c1cnc2ccccn12 [F23] | pIC50: 7.68

Item: O=C(N[C@@H](CO)[C@@H](O)c1ccccc1)c1ccc(F)c(NC(=O)c2cnc3ccccn23)c1 [F123] | pIC50: 7.36

Item: O=C(NC1Cc2ccccc2C1O)c1ccc(F)c(NC(=O)c2cnc3cc(Br)ccn23)c1 (centres unmarked) [F10] | pIC50: 6.89

Item: Cc1ccc(C(=O)NC(CO)c2ccccc2)cc1NC(=O)c1cnc2ccccn12 (centres unmarked) [F2] | pIC50: 6.84

Item: Cc1ccc2ncc(C(=O)Nc3cc(C(=O)N[C@@H]4c5cc(Cl)ccc5C[C@@H]4O)ccc3F)n2c1 (stereo in doubt) [F33] | pIC50: 6.79

Item: Cc1ccc2ncc(C(=O)Nc3cc(C(=O)N[C@@H]4c5ccc(F)cc5C[C@@H]4O)ccc3F)n2c1 [F28] | pIC50: 6.89

====

Field: log10(IC50). Provide a value for each of the compounds that follow.
Tested on: PDGFR
method-summary: Rat A10 cell proliferation assay
Format: cell-based
condition-context: Table 2; Rat A10 cells, recombinant rat PDGF-BB, CellTiter-Glo after 68 hours
Values reflect log10 of reported IC50 (nM).

"O=C(N[C@@H]1Cc2ccccc2[C@@H]1O)c1ccc(F)c(NC(=O)c2cnc3ccccn23)c1" on PDGFR gives log10(IC50) = 2.39

"O=C(N[C@@H]1CCCC[C@H]1O)c1ccc(F)c(NC(=O)c2cnc3ccccn23)c1" on PDGFR gives log10(IC50) = 2.72

O=C(N[C@@H]1c2ccccc2C[C@@H]1O)c1cccc(NC(=O)c2cnc3ccccn23)c1 (stereo in doubt) on PDGFR gives log10(IC50) = 2.55

Cc1ccc2ncc(C(=O)Nc3cc(C(=O)N[C@@H]4c5ccc(Cl)cc5C[C@@H]4O)ccc3F)n2c1 (stereo in doubt) [F41] on PDGFR gives log10(IC50) = 2.43

"[2H]c1c([2H])c([2H])n2c(C(=O)Nc3cc(C(=O)N[C@@H]4c5ccccc5C[C@@H]4O)ccc3F)cnc2c1[2H]" on PDGFR gives log10(IC50) = 2.46

"CSc1ccc([C@H](O)[C@H](CO)NC(=O)c2ccc(F)c(NC(=O)c3cnc4ccccn34)c2)cc1" on PDGFR gives log10(IC50) = 2.45

"COc1ccc2ncc(C(=O)Nc3cc(C(=O)N[C@H]4c5ccccc5C[C@H]4O)ccc3F)n2c1" on PDGFR gives log10(IC50) = 2.36

O=C(NC1CCCC[C@H]1CO)c1ccc(F)c(NC(=O)c2cnc3ccccn23)c1 (stereo in doubt) on PDGFR gives log10(IC50) = 2.47

O=C(N[C@@H]1c2ccccc2C[C@@H]1O)c1ccc(F)c(NC(=O)c2cnc3ccc(-n4ccnc4)cn23)c1 (stereo in doubt) on PDGFR gives log10(IC50) = 3.46

O=C(N[C@H]1CCCCC1O)c1cccc(NC(=O)c2cnc3ccccn23)c1 (stereo in doubt) on PDGFR gives log10(IC50) = 3.13

"O=C(N[C@H]1c2ccccc2C[C@H]1O)c1cccc(NC(=O)c2cnc3ccccn23)c1" on PDGFR gives log10(IC50) = 3.18

"O=C(N[C@H]1CC[C@H](O)CC1)c1ccc(F)c(NC(=O)c2cnc3ccccn23)c1" on PDGFR gives log10(IC50) = 3.06

"O=C(N[C@H]1c2ccccc2C[C@H]1O)c1ccc(F)c(NC(=O)c2cnc3cc(F)ccn23)c1" on PDGFR gives log10(IC50) = 2.78

O=C(N[C@@H]1c2ccccc2C[C@@H]1O)c1ccc(F)c(NC(=O)c2cnc3ccc(C(F)(F)F)cn23)c1 (stereo in doubt) on PDGFR gives log10(IC50) = 2.77

"O=C(NCC1(CO)CCCC1)c1ccc(F)c(NC(=O)c2cnc3ccccn23)c1" on PDGFR gives log10(IC50) = 3.25

"Cc1ccn2c(C(=O)Nc3cc(C(=O)N[C@H]([C@@H](O)c4ccccc4)C(C)(C)O)ccc3F)cnc2c1" on PDGFR gives log10(IC50) = 2.41

"O=C(N[C@H](CO)CC1CCCCC1)c1cccc(NC(=O)c2cnc3ccccn23)c1" on PDGFR gives log10(IC50) = 2.56

"[2H]c1c([2H])c([2H])n2c(C(=O)Nc3cc(C(=O)N[C@H]4c5ccccc5C[C@H]4O)ccc3F)cnc2c1[2H]" on PDGFR gives log10(IC50) = 2.68

"O=C(NC[C@@H](O)c1ccccc1)c1ccc(F)c(NC(=O)c2cnc3ccccn23)c1" on PDGFR gives log10(IC50) = 2.38

"O=C(NC[C@@H](O)c1cccc(O)c1)c1ccc(F)c(NC(=O)c2cnc3ccccn23)c1" on PDGFR gives log10(IC50) = 2.82

"CC(C)(O)[C@H]1CCCC[C@@H]1NC(=O)c1ccc(F)c(NC(=O)c2cnc3ccccn23)c1" on PDGFR gives log10(IC50) = 2.63

"O=C(NC12C[C@@H]3C[C@@H](CC(O)(C3)C1)C2)c1ccc(F)c(NC(=O)c2cnc3ccccn23)c1" on PDGFR gives log10(IC50) = 2.63

"O=C(N[C@H]1CC[C@H](O)CC1)c1cccc(NC(=O)c2cnc3ccccn23)c1" on PDGFR gives log10(IC50) = 3.97

O=C(N[C@@H]1c2ccccc2C[C@@H]1O)c1ccc(F)c(NC(=O)c2cnc3ccc(COCC(F)(F)F)cn23)c1 (stereo in doubt) on PDGFR gives log10(IC50) = 2.79

"O=C(N[C@@H]1CCSC[C@H]1O)c1ccc(F)c(NC(=O)c2cnc3ccccn23)c1" on PDGFR gives log10(IC50) = 2.92

O=C(N[C@@H]1CCC[C@@H]1O)c1ccc(F)c(NC(=O)c2cnc3ccccn23)c1 (stereo in doubt) on PDGFR gives log10(IC50) = 3.07

====

Tested on: PDGFR
method-summary: Rat A10 cell proliferation assay
Format: cell-based
condition-context: Table 2; Rat A10 cells, recombinant rat PDGF-BB, CellTiter-Glo after 68 hours
Field: log10(IC50). Provide a value for each of the compounds that follow.
Values reflect log10 of reported IC50 (µM).

Item: O=C(N[C@H]1CCCC[C@@H]1CO)c1ccc(F)c(NC(=O)c2cnc3ccccn23)c1 [F51] | log10(IC50): -0.41

Item: O=C(N[C@@H]1CCCC(F)(F)[C@H]1O)c1ccc(F)c(NC(=O)c2cnc3ccccn23)c1 [F99] | log10(IC50): -0.49

Item: O=C(N[C@@H](c1ccccc1)[C@H](O)CO)c1ccc(F)c(NC(=O)c2cnc3ccccn23)c1 [F101] | log10(IC50): -0.37

Item: O=C(NC1(CO)CCCC1)c1cccc(NC(=O)c2cnc3ccccn23)c1 [F77] | log10(IC50): 0.98

Item: COc1ccc2c(c1)[C@@H](NC(=O)c1ccc(F)c(NC(=O)c3cnc4ccc(C)cn34)c1)[C@@H](O)C2 (stereo in doubt) [F45] | log10(IC50): -0.46

Item: O=C(N[C@@H]1CCCC[C@@H]1O)c1ccc(F)c(NC(=O)c2cnc3ccccn23)c1 [F82] | log10(IC50): -0.52

Item: O=C(N[C@@H]1c2ccccc2C[C@@H]1O)c1ccc(F)c(NC(=O)c2cnc3ccc(N4CCOCC4)cn23)c1 (stereo in doubt) [F54] | log10(IC50): -0.32

====

Test system: PDGFR
method-summary: Rat A10 cell proliferation assay
Type: cell-based
condition-context: Table 2; Rat A10 cells, recombinant rat PDGF-BB, CellTiter-Glo after 68 hours
result-type: pIC50
By convention, pIC50 is the negative base-10 log of a molar concentration.

"O=C(N[C@H]1CCC[C@H]1O)c1ccc(F)c(NC(=O)c2cnc3ccccn23)c1" on PDGFR gives pIC50 = 5.46

"Cc1ccc2ncc(C(=O)Nc3cc(C(=O)N[C@@H]4c5cc(F)ccc5C[C@@H]4O)c(C)cc3F)n2c1" on PDGFR gives pIC50 = 5.74

"O=C(N[C@H]1CCCC[C@H]1O)c1ccc(F)c(NC(=O)c2cnc3ccccn23)c1" on PDGFR gives pIC50 = 6.43

"CC(C)(O)[C@@H]1CCCC[C@@H]1NC(=O)c1ccc(F)c(NC(=O)c2cnc3ccccn23)c1" on PDGFR gives pIC50 = 6.09

All values here come from patent US20140206682A1.
